Reference for the values: patent US20230381328A1

- TARGET_SYSTEM: monoclonal antibody mAB 198
- PROCEDURE_TEXT: peptide microarray, fluorescence, linear peptide
ENDPOINT_NAME: relative signal [%] (%)

INSERT INTO results (binder, assay_result) VALUES
  ('NPADYGH [NPADYGH, linear mimotope]', 18.1),
  ('LRRNPAD [LRRNPAD, linear mimotope]', 100),
  ('NPADYGV [NPADYGV, linear mimotope]', 6),
  ('LRGNPAD [LRGNPAD, linear mimotope]', 48),
  ('HSLRWNPAD', 6.6),
  ('VRLRYNP [VRLRYNP, linear mimotope]', 26.3),
  ('VDCNLKYNP', 6.1),
  ('GSLRRNPAD', 9.5);
